target: Tyrosine-protein phosphatase non-receptor type 1 (Homo sapiens, UniProt P18031); assay: Inhibitory activity against protein tyrosine phosphatase 1B (PTP1B) using fluorescein diphosphate as substrate at Km concentration (20 uM)
quantity: IC50 (µM)

- smilesRepresentation: "O=C(O)C(F)(Oc1ccc2ccccc2c1)C(=O)O"
  dataValue: 320

(A) O=P(O)(O)OC(F)(F)c1ccc2ccccc2c1
(B) FC(F)(c1cccc(-c2ccccc2)c1)c1nnn[nH]1
# min-compare on IC50 between A and B API: response body contains the label of the selected item.
A

(I) O=C(O)C(F)(F)c1cccc(-c2ccccc2)c1
(II) FC(F)(c1ccc2ccccc2c1)c1nnn[nH]1
(III) O=C(O)C(F)(F)c1ccc2ccccc2c1
Hello, I need these entries ordered by IC50, highest reading first. Thanks! Answer by writing out the labels in the requested order.
III, I, II

---

Target protein (sequence): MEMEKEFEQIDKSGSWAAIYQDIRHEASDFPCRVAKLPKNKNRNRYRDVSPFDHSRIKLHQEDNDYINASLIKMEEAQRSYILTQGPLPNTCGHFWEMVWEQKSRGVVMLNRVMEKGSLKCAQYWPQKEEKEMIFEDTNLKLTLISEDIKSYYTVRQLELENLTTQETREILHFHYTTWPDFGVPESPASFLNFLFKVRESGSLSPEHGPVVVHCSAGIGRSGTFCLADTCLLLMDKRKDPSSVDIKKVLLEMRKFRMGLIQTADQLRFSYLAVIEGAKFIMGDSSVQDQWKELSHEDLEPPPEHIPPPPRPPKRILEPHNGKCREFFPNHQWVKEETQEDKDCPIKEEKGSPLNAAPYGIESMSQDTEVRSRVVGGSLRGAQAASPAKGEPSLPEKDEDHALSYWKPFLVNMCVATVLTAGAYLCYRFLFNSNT
quantity: Ki (µM)
# number only, unit µM dropped from output

Name the reported Ki value associated with the compound O=S(=O)(O)C(F)(F)c1cccc(-c2ccccc2)c1
49

---

biological target: Tyrosine-protein phosphatase non-receptor type 1 (Homo sapiens) (UniProt P18031); experiment: Inhibitory activity against protein tyrosine phosphatase 1B (PTP1B) at 500 uM conc. using fluorescein diphosphate as substrate at Km concentration (20 uM)
quantity: inhibition (%)

Some solved cases for reference:
- smilesRepresentation: "c1ccc2cc(Cc3nnn[nH]3)ccc2c1"
  valueUnits: "%"
  inhibition: 12
- smilesRepresentation: "c1ccc(-c2cccc(Cc3nnn[nH]3)c2)cc1"
  valueUnits: "%"
  inhibition: 15
- smilesRepresentation: "O=C(O)Cc1cccc(-c2ccccc2)c1"
  valueUnits: "%"
  inhibition: 10
- smilesRepresentation: "O=S(=O)(O)Cc1ccc2ccccc2c1"
  valueUnits: "%"
  inhibition: 5
- smilesRepresentation: "O=S(=O)(O)Cc1cccc(-c2ccccc2)c1"
  valueUnits: "%"
  inhibition: 10

(1) O=C(O)Cc1ccc2ccccc2c1
(2) O=P(O)(O)Cc1ccc2ccccc2c1
(3) O=P(O)(O)Cc1cccc(-c2ccccc2)c1
Arrange the 3 compounds from largest to smallest inhibition. Answer by listing the labels in the requested order.
3, 2, 1

---

This section presents compounds with their documented pIC50 values.
target: Tyrosine-protein phosphatase non-receptor type 1 (Homo sapiens, UniProt P18031); assay: Inhibitory activity against protein tyrosine phosphatase 1B (PTP1B) using fluorescein diphosphate as substrate at Km concentration (20 uM)
In plain terms, pIC50 is the concentration in mol/L turned into minus its base-10 logarithm.

As a guide, the following entries are already answered.
- smilesRepresentation: "O=S(=O)(O)C(F)(F)c1cccc(-c2ccccc2)c1"
  measuredTarget: "Tyrosine-protein phosphatase non-receptor type 1 (Homo sapiens, UniProt P18031)"
  quantity: "pIC50"
  dataValue: 3.94
- smilesRepresentation: "O=C(O)C(F)(Oc1cccc(-c2ccccc2)c1)C(=O)O"
  measuredTarget: "Tyrosine-protein phosphatase non-receptor type 1 (Homo sapiens, UniProt P18031)"
  quantity: "pIC50"
  dataValue: 3.60

I am curious: what pIC50 value has been reported for O=S(=O)(O)C(F)(F)c1ccc2ccccc2c1 ?
3.76

Reference for the values: ChEMBL document CHEMBL1130679
